Literature survey of IC50 (system: Apoptosis regulator Bcl-2 (Homo sapiens, UniProt P10415)).

Exercise: What does the record list as IC50 for "CC1(C)CCC(CN2CCN(c3ccc(C(=O)NS(=O)(=O)c4ccc(N5CCOCC5)c([N+](=O)[O-])c4)c(-n4ncc5nc6[nH]ccc6cc54)c3)CC2)=C(c2ccc(Cl)cc2)C1" ?
Solution: < 10 nM

Exercise: Which value of IC50 has been reported for O=C(NS(=O)(=O)c1ccc(NC2CCS(=O)(=O)CC2)c([N+](=O)[O-])c1)c1ccc(N2CCC(CN3CCCCC3c3ccc(Cl)cc3)CC2)cc1Oc1cnc2[nH]ccc2c1 (stereo not drawn) in the records?
Solution: > 50 nM

Exercise: Value lookup for IC50; key = "CCCCN(C)C1=C2C(=NC1=O)c1cccc3cccc2c13"
Solution: 45 nM

###

// cross-study collection: IC50 for Apoptosis regulator Bcl-2 (Homo sapiens, UniProt P10415)

Exercise: Look up IC50 with Apoptosis regulator Bcl-2 (Homo sapiens, UniProt P10415) for this compound: "O=C(NS(=O)(=O)c1ccc(NCC2CCOCC2)c([N+](=O)[O-])c1)c1ccc(N2CCN(C(c3ccccc3)c3ccccc3)CC2)cc1Oc1ccc2[nH]ccc2c1"
Solution: > 0.05 µM

Exercise: # query: IC50 | item "O=C(Nc1ccc(S(=O)(=O)N2CCOCC2)cc1)c1cc(S(=O)(=O)N2CCc3ccccc3C2)cc(O)c1O" | system: Apoptosis regulator Bcl-2 (Homo sapiens, UniProt P10415)
Solution: ≤ 1 µM

Exercise: Give Apoptosis regulator Bcl-2 (Homo sapiens, UniProt P10415) IC50 for "CN(C)CC[C@H](CSc1ccccc1)Nc1ccc(S(=O)(=O)Nc2nc(C(F)(F)F)nc3c2CCN(C2CCN(Cc4ccccc4-c4ccc(Cl)cc4)CC2)C3)cc1S(=O)(=O)C(F)(F)F"
Solution: 0.042 µM

Exercise: Record lookup: for Apoptosis regulator Bcl-2 (Homo sapiens, UniProt P10415), what IC50 belongs to "CCCCN(CCCC)C(=O)c1cc(C)n(-c2ccc(NC(=O)CCc3nc(-c4ccccc4)no3)cc2C(=O)N2Cc3ccccc3C[C@H]2CO)n1" ?
Solution: 0.111 to 0.12 µM

Exercise: Item: "CCCCN(CCCC)C(=O)c1cc(C)n(-c2ccc(NC(=O)Cc3ccccc3)cc2C(=O)N2Cc3ccccc3C[C@H]2CO)n1" Test system: Apoptosis regulator Bcl-2 (Homo sapiens, UniProt P10415) Read-out: IC50 Value: ?
Solution: 0.098 to 0.134 µM

Exercise: Short answer please: IC50, Apoptosis regulator Bcl-2 (Homo sapiens, UniProt P10415), entry "CCCCN(CCCC)C(=O)c1cc(C)n(-c2ccc(NC(=O)C(Cc3ccccc3)(Cc3ccccc3)C(=O)O)cc2C(=O)N2Cc3ccccc3C[C@H]2CO)n1"
Solution: 0.046 to 0.0631 µM

Exercise: Query the reported IC50 for Apoptosis regulator Bcl-2 (Homo sapiens, UniProt P10415); item: "CC1(C)CCC(CN2CCN(c3ccc(C(=O)NS(=O)(=O)c4ccc(NCC5(F)CCN(C6COC6)CC5)c([N+](=O)[O-])c4)c(-n4ncc5nc6[nH]ccc6cc54)c3)CC2)=C(c2ccc(Cl)cc2)C1"
Solution: < 0.01 µM

Exercise: Kindly state the measured IC50 obtained for "CN(C)CC[C@H](CSc1cccc(Cl)c1)Nc1ccc(S(=O)(=O)Nc2ncnc3c2CCN(C2CCN(Cc4ccccc4-c4ccc(F)cc4)CC2)C3)cc1S(=O)(=O)C(F)(F)F" with Apoptosis regulator Bcl-2 (Homo sapiens, UniProt P10415).
Solution: 0.099 µM

Exercise: Value wanted: IC50 (Apoptosis regulator Bcl-2 (Homo sapiens, UniProt P10415)) of entry "CCCCN(CCCC)C(=O)c1nn(-c2ccc(C(=O)NS(=O)(=O)c3ccc4ccccc4c3)cc2C(=O)N2COc3ccccc3C2)c(C)c1Cl"
Solution: 0.12 µM

Exercise: # returns recorded IC50 (system: Apoptosis regulator Bcl-2 (Homo sapiens, UniProt P10415)) for "CCCCN(CCCC)C(=O)c1cc(C)n(-c2ccc(NC(=O)Cc3cccc(C#N)c3)cc2C(=O)N2Cc3ccccc3C[C@H]2CO)n1"
Solution: 0.229 to 0.238 µM

Exercise: // lookup IC50 | system=Apoptosis regulator Bcl-2 (Homo sapiens, UniProt P10415) | key= "CCCCN(CCCC)C(=O)c1nn(-c2ccc(C(=O)NS(=O)(=O)c3ccc4c(c3)CCN4C(=O)C3CCCCC3)cc2C(=O)N2CCc3ccccc3C2)c(C)c1Cl"
Solution: 0.25 µM
